Data origin, for the record: paper PMC7942396

Documented % Cytotox across a set of compounds
test system: Vero E6 cells; settings: cytotoxicity counter-assay, Vero E6 cells without virus
Note: unit % is implicit; provide only the numeric part.

Some entries whose results are on file:
Compound: Cc1c(NC(=O)OC[C@@H]2COCCN2)cn2ncnc(Nc3ccc4c(cnn4Cc4cccc(F)c4)c3)c12
Units of measure: %
Recorded result: 67.2
//
Compound: CC1(CN2CCC(n3c(=O)[nH]c4ccccc43)CC2)OCc2ccccc2-n2cccc21.O=C(O)/C=C\C(=O)O (stereo not drawn) [Zaldaride maleate]
Units of measure: %
Recorded result: 0.0

We next turn to a different compound, shown below.
Ask | I'm curious: which % Cytotox was measured for COC(=O)CC[C@@H](C)[C@H]1CC[C@H]2[C@@H]3CC[C@@H]4C[C@H](OC(C)=O)CC[C@]4(C)[C@H]3C[C@H](O)[C@]12C (racemic) tested on Vero E6 cells?
Reply | 0.0
